# key: entry, value: pEC50
Biological target: Ba/F3 stable cells (Homo sapiens, UniProt P00533, DUP767-769, cells depend on it)
Construct: EC50 Ba/F3-EGFR V769-D770insASV; other: Ba/F3-EGFR V769-D770insASV cells, 72 h, CCK-8
Sequence (P00533 with tags, fused parts or gaps DUP767-769): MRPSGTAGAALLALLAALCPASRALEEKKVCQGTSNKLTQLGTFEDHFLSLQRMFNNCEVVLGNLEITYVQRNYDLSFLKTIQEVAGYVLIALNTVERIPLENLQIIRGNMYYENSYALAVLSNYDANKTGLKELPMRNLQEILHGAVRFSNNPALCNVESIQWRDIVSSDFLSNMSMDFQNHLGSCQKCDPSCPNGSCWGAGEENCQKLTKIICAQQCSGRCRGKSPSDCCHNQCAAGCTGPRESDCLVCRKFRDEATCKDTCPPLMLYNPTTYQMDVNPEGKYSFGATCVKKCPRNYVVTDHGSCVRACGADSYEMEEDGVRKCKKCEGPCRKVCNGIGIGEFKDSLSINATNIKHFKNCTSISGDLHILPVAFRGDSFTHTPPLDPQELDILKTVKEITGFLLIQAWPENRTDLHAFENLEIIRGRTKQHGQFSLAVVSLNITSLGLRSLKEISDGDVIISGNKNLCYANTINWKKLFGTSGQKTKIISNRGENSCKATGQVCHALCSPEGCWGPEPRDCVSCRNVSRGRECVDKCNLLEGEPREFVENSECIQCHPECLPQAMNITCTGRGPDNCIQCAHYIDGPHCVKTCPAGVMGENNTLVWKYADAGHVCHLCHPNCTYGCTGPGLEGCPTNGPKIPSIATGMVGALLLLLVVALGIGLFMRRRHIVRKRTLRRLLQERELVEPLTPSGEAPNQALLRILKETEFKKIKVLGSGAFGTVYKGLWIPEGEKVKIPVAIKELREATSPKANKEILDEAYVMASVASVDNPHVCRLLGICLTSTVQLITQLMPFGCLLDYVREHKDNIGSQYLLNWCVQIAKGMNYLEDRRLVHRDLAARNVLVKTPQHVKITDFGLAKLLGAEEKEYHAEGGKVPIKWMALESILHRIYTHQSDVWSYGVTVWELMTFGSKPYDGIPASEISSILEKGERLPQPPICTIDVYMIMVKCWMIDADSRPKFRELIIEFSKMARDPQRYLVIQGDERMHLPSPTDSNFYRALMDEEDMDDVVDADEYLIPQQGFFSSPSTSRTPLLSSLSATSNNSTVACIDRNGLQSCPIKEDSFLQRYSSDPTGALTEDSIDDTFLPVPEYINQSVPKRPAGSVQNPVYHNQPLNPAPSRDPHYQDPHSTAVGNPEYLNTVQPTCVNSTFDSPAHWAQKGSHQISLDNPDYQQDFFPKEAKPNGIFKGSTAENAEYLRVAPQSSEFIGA
Experiment: EC50 assay: Ba/F3 stable cell proliferation (CCK-8, 72 h)
Details: Ba/F3-EGFR V769-D770insASV cells
pEC50: −log10 of the molar value.

These recorded examples may help you get a feel for the data.
                                   molecule  readoutname      observed
0  C=CC(=O)NC1CC(Oc2cc3c(Nc4ccc(Cl)cc4F)ncnc3cc2OC)C1 (centres unmarked)        pEC50        ≥ 6.70
1  C=CC(=O)N1CCC(Oc2cc3c(Nc4ccc5ccccc5c4Cl)ncnc3cc2OC)CC1        pEC50        ≥ 6.70
2  C=CC(=O)N1CCC(Oc2cc3c(NCc4cc(F)cc(Cl)c4)ncnc3cc2OC)CC1        pEC50  6.00 to 6.70
3  C=CC(=O)N1CCC(Oc2cc3c(Nc4ccc5c(c4)CCN5)ncnc3cc2OC)CC1        pEC50        ≥ 6.70
4  C=CC(=O)N1CCC(c2cc3c(Nc4ccc(Cl)c(Cl)c4F)ncnc3cc2OC)CC1        pEC50        ≥ 6.70

Exercise: For the molecule C=CC(=O)N1CCC(Oc2c(OC)cc3ncnc(Nc4ccc(Cl)c(Cl)c4F)c3c2[N+](=O)[O-])CC1 , what pEC50 is on record?
Solution: < 6.00

Exercise: If you can, please state the reported pEC50 value of C=CC(=O)N1CCC(Oc2cc3c(NCc4cc(Cl)ccc4Cl)ncnc3cc2OC)CC1 .
Solution: < 6.00

Exercise: Query (molecule): C#CC(=O)N[C@H]1C[C@@H](Oc2cc3c(Nc4cccc5ccccc45)ncnc3cc2OC)C1 ; field requested: pEC50
Solution: ≥ 6.70
